Value source: the supplement of paper PMC9112550

System: Escherichia coli TOP10;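 also: peptides expressed intracellularly from a pBAD plasmid library in pooled LB shake-flask culture, induced with 0.3% L-arabinose, DNA abundance read by NGS, three biological replicates, DESeq2 with apeglm shrinkage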
TEST_NAME: shrunken log2 fold change of peptide-encoding DNA abundance (4.5 h post-induction vs induction); higher = less antimicrobial activity (less host growth inhibition)
EXPERIMENTAL_CONTEXT: time post-induction: 4.5 h; library: site-saturation at positions 5, 18, 19, 20
Assign shrunken log2 fold change to each entry below.
Answer with the value's number alone.

Determine from records and report shrunken log2 fold change for RRIRLRPPRLPRPRPRPFMTPRP
-0.824

Give the reported value of shrunken log2 fold change for this record: RRIRMRPPRLPRPRPRPLMSPRP
0.00915

Report measured shrunken log2 fold change; entry is RRIRVRPPRLPRPRPRPSSEPRP
-0.327

Report shrunken log2 fold change, nothing else, for this sequence: RRIRFRPPRLPRPRPRPEWGPRP
0.186

Specify measured shrunken log2 fold change for RRIRVRPPRLPRPRPRPQAEPRP .
0.352

Consider the sequence RRIRGRPPRLPRPRPRPFHQPRP . State its measured shrunken log2 fold change.
-0.199

State, in one line, measured shrunken log2 fold change of RRIRVRPPRLPRPRPRPWLLPRP
0.208

Give me measured shrunken log2 fold change, please, for this sequence: RRIRMRPPRLPRPRPRPEWKPRP
0.0511

Annotate the sequence RRIRSRPPRLPRPRPRPWLFPRP with its measured shrunken log2 fold change.
-0.183

# return recorded shrunken log2 fold change for entry RRIRPRPPRLPRPRPRPARPPRP
0.626

Indicate the recorded shrunken log2 fold change value for this sequence: RRIRFRPPRLPRPRPRPDFKPRP
-0.296

Please list shrunken log2 fold change recorded for the sequence RRIRIRPPRLPRPRPRPIYPPRP
-0.304

Retrieve shrunken log2 fold change measured for RRIRYRPPRLPRPRPRPGNGPRP and print it.
-0.234

Given the sequence RRIRWRPPRLPRPRPRPNGPPRP , write its reported shrunken log2 fold change.
-0.0107

Consider the sequence RRIRCRPPRLPRPRPRPSYVPRP . State its measured shrunken log2 fold change.
-0.786

Provide measured shrunken log2 fold change value, entry: RRIRYRPPRLPRPRPRPYCEPRP
-0.0996

Return shrunken log2 fold change (reported value) for this sequence: RRIRKRPPRLPRPRPRPQYVPRP
-0.143

Supply recorded shrunken log2 fold change for RRIRYRPPRLPRPRPRPGNYPRP here.
-0.0361

Supply reported shrunken log2 fold change belonging to this sequence: RRIRRRPPRLPRPRPRPWANPRP
0.0142

Check the records and state shrunken log2 fold change for RRIRNRPPRLPRPRPRPHMCPRP
-0.0575

Give shrunken log2 fold change for the following sequence: RRIRYRPPRLPRPRPRPHRVPRP
-0.248

Item RRIRIRPPRLPRPRPRPDPEPRP : provide shrunken log2 fold change
-0.158

State its shrunken log2 fold change: RRIRARPPRLPRPRPRPMAIPRP
-0.0621

Query shrunken log2 fold change for RRIRKRPPRLPRPRPRPWPLPRP
-0.0227

State its shrunken log2 fold change: RRIRPRPPRLPRPRPRPVLLPRP
0.00267

Read off the recorded shrunken log2 fold change for RRIRFRPPRLPRPRPRPTEAPRP
0.332

Using the record for RRIRYRPPRLPRPRPRPNMWPRP , state its measured shrunken log2 fold change.
-0.391

Please report shrunken log2 fold change for the following sequence: RRIRDRPPRLPRPRPRPWPTPRP
0.104

Supply shrunken log2 fold change value. Item: RRIRTRPPRLPRPRPRPVVMPRP
-0.0861

Supply measured shrunken log2 fold change of RRIRPRPPRLPRPRPRPFIGPRP in your reply.
0.108

For the sequence RRIRRRPPRLPRPRPRPYHKPRP , give its reported shrunken log2 fold change.
-0.535

Identify shrunken log2 fold change associated with the sequence RRIRIRPPRLPRPRPRPTTSPRP
-0.0703

Output measured shrunken log2 fold change for this item: RRIRNRPPRLPRPRPRPQLFPRP
0.177

Please supply the value of reported shrunken log2 fold change for the item RRIRFRPPRLPRPRPRPPGRPRP
0.637

Give me measured shrunken log2 fold change, please, for this sequence: RRIRCRPPRLPRPRPRPAPIPRP
1.74

Answer with the recorded shrunken log2 fold change for the sequence listed here: RRIRTRPPRLPRPRPRPRKMPRP
-0.107

Please look at this sequence and report its shrunken log2 fold change: RRIRRRPPRLPRPRPRPWRHPRP
0.0972

Output measured shrunken log2 fold change for this item: RRIRFRPPRLPRPRPRPPLDPRP
0.461

Report shrunken log2 fold change for RRIRVRPPRLPRPRPRPGLSPRP
0.32

Give the reported shrunken log2 fold change for this sequence. RRIRMRPPRLPRPRPRPDFDPRP
0.15

Return shrunken log2 fold change for the following sequence: RRIRSRPPRLPRPRPRPYRQPRP
-0.402

Note shrunken log2 fold change for the sequence shown: RRIRARPPRLPRPRPRPATSPRP
0.461

Supply recorded shrunken log2 fold change for RRIRCRPPRLPRPRPRPETPPRP here.
1.91

Indicate its recorded shrunken log2 fold change; the sequence in question is RRIRYRPPRLPRPRPRPGHTPRP
-0.626

Answer with the recorded shrunken log2 fold change of RRIRHRPPRLPRPRPRPKPEPRP only.
0.0966

Tell me shrunken log2 fold change reported for RRIRERPPRLPRPRPRPWNTPRP
-0.00122

Provide one value: measured shrunken log2 fold change of RRIRWRPPRLPRPRPRPFHNPRP
-0.392

Return the recorded shrunken log2 fold change value; entry: RRIRYRPPRLPRPRPRPFCCPRP
-0.509

Find the measured shrunken log2 fold change of RRIRYRPPRLPRPRPRPLYSPRP and report it.
-1.15

Identify measured shrunken log2 fold change associated with RRIRSRPPRLPRPRPRPCPEPRP
-0.444

For the sequence RRIRARPPRLPRPRPRPASGPRP , report shrunken log2 fold change.
1.35

Respond only with shrunken log2 fold change recorded for RRIRSRPPRLPRPRPRPHVHPRP
-0.412

Give shrunken log2 fold change for RRIRVRPPRLPRPRPRPTMDPRP
-0.116
